Catalogue of pIC50 readings, one per entry.
Molecular target: HCV1b NS5B polymerase delta 21 (Hepatitis C virus genotype 1b, UniProt P26663)
Construct: purified HCV1b NS5B polymerase delta 21
Sequence (P26663 2420-2989): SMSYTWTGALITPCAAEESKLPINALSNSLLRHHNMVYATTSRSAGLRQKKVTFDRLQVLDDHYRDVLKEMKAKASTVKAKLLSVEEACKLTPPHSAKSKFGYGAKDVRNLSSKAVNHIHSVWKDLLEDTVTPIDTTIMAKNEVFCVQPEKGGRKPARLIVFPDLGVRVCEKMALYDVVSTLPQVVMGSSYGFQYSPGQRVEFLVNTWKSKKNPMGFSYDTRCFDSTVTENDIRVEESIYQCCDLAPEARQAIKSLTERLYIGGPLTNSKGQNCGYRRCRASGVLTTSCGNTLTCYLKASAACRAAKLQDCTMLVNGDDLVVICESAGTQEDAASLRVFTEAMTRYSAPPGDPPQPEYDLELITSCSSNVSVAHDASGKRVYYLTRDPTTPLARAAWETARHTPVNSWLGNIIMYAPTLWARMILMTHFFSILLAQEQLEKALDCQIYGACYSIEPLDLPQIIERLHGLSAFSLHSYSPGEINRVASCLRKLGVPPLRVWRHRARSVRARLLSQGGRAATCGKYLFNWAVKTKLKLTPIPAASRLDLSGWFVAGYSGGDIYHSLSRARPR
Assay: RNA-Dependent RNA HCV NS5B (Polymerase) Assay and IC50 Determination
Type: biochemical
pIC50: −log10 of the molar value.

compound	pIC50
CCN1CCC(c2cc(-c3ccc(-c4cc5ncccn5n4)cc3)sc2C(=O)O)=C(C2CCC(C)CC2)C1 (stereo not shown)	> 5.52

Case CC1CCC(C2=C(c3cc(-c4ccccc4)sc3C(=O)O)CCN(C(=O)c3cncn3C)C2)CC1 (stereo not shown) , HCV1b NS5B polymerase delta 21 (Hepatitis C virus genotype 1b, UniProt P26663), pIC50 recorded as < 5.00

Case CC1CCC(C2=C(c3cc(-c4ccc(NC(=O)c5cscn5)cc4)sc3C(=O)O)CCN(C)C2)CC1 (stereo not shown) , HCV1b NS5B polymerase delta 21 (Hepatitis C virus genotype 1b, UniProt P26663), pIC50 recorded as > 5.52

Case CC1CCC(C2=C(c3cc(-c4ccccc4)sc3C(=O)O)CCN(C)C2)CC1 (stereo not shown) , HCV1b NS5B polymerase delta 21 (Hepatitis C virus genotype 1b, UniProt P26663), pIC50 recorded as > 5.52
